Source of measurements: patent US20160228506A1

Assay protocol: SGF digest of 168 nutritive polypeptide library, intact protein by LC-MS/MS
Format: in vitro ADME
Conditions: 168 nutritive polypeptide library SGF digest, LC-MS/MS spectral counts
Measured quantity: % Intact Protein at 10 min
Note: a bare number is incomplete; add the unit.

Query SEQID-00552: protein of the 168 nutritive polypeptide library (protein, listed as Saccharomyces cerevisiae, source: /note="strain ATCC 204508 / S288c", protein of the 168 nutritive polypeptide library) MSNMMNKFAEKLQGNDDSHQKGKNAKSSNKERDDMNMDMGMGHDQSEGGMKMGHDQSGTKMNAGRGIANDWKTYENMKK yields % Intact Protein at 10 min of 79%

response.value for SEQID-00497: protein of the 168 nutritive polypeptide library (protein, listed as Saccharomyces cerevisiae, source: /note="strain ATCC 204508 / S288c", protein of the 168 nutritive polypeptide library) MSIASYAQELKLALHQYPNFPSEGILFEDFLPIFRNPGLFQKLIDAFKLHLEEAFPEVKIDYIVGLESRGFLFGPTLALALGVGFVPVRKAGKLPGECFKATYEKEYGSDLFEIQKNAIPAGSNVIIVDDIIATGGSAAAAGELVEQLEANLLEYNFVMELDFLKGRSKLNAPVFTLLNAQKEALKK (field: % Intact Protein at 10 min) = 20.3%

% Intact Protein at 10 min reported for this molecule SEQID-00573: protein of the 168 nutritive polypeptide library (protein, listed as Cicer arietinum) MAPAKAEKKPAEKKPAAEKAPAEKKPKAEKKISKEGTSDKKKKRVKKSVETYKIYIFKVLKQVHPDIGISSKAMGIMNSFINDIFEKLAQEASRLARYNKKPTITSREIQTAVRLVLPGELAKHAVSEGTKAVTKFTSS : 66.7%

Per the record, SEQID-00626: protein of the 168 nutritive polypeptide library (protein, listed as Lactobacillus acidophilus, source: /note="strain 30SC", protein of the 168 nutritive polypeptide library) MVMTDPIADYLTRIRNANMAKHDSVEIPASNIKKSISEILKREGFIRDYEVADDNKQGVIKVFLKYGPNGERVISGLKRISKPGLRNYVSAEDLPKVLNGLGIAIVSTSAGVITDKEARQKNVGGEVIAYIW has % Intact Protein at 10 min of 0%

# molecule SEQID-00638: protein of the 168 nutritive polypeptide library (protein, Arthrospira platensis NIES-39, protein of the 168 nutritive polypeptide library) MKTNELVQRVAEKAKLPKKRVRAILDLAFSAISEEIESGQPVVVRGLGKFTLKEQPARTKTNPETGETTEVPARTVVNFRVIKPSKDKEEADS ; its % Intact Protein at 10 min = 0%

Noted for SEQID-00515: protein of the 168 nutritive polypeptide library (protein, listed as Saccharomyces cerevisiae, source: /note="strain ATCC 204508 / S288c", protein of the 168 nutritive polypeptide library) MSNLLNKFADKLHGNDHDERYEDDNDDQTRQQRHEKHQQREFRNQGSKADPYGEENQGNFPQRQQPQSNLGGNTQFGGNDFQQQTTDYTAGTGGGTYTQTYRETNTQGQLDDDEDDDFLTSGQQQKQGRTRGAQSNRYQSSNIGSGRRDLSGSGNDEYDDDSGNQGVW : its % Intact Protein at 10 min reads 17%

Recorded % Intact Protein at 10 min (molecule SEQID-00645: protein of the 168 nutritive polypeptide library (protein, listed as Saccharomyces cerevisiae, source: /note="strain ATCC 204508 / S288c", protein of the 168 nutritive polypeptide library) MAYTSHLSSKTGLHFGRLSLRSLTAYAPNLMLWGGASMLGLFVFTEGWPKFQDTLYKKIPLLGPTLEDHTPPEDKPN ): 0%

Quick note, % Intact Protein at 10 min for SEQID-00534: protein of the 168 nutritive polypeptide library (protein, Arthrospira platensis NIES-39, protein of the 168 nutritive polypeptide library) MSIYVGNLSYEVTEDDLTAVFAEYGSVKRVKLPTDRETGRMRGFGFVEMDTEAEEQSAIDALDGAEWCGRDLRVNKAKPRENSGSFGGGGGGRRGGGGYSRRS landed at 0%

Kindly note the recorded % Intact Protein at 10 min for SEQID-00609: protein of the 168 nutritive polypeptide library (protein, listed as Saccharomyces cerevisiae, source: /note="strain ATCC 204508 / S288c", protein of the 168 nutritive polypeptide library) MSNPFDLLGNDVEDADVVVLPPKEIVKSNTSSKKADVPPPSADPSKARKNRPRPSGNEGAIRDKTAGRRNNRSKDVTDSATTKKSNTRRATDRHSRTGKTDTKKKVNQGWGDDKKELSAEKEAQADAAAEIAEDAAEAEDAGKPKTAQLSLQDYLNQQANNQFNKVPEAKKVELDAERIETAEKEAYVPATKVKNVKSKQLKTKEYLEFDATFVESNTRKNFGDRNNNSRNNFNNRRGGRGARKGNNTANATNSANTVQKNRNIDVSNLPSLA , which is 0%

# % Intact Protein at 10 min (molecule: SEQID-00544: protein of the 168 nutritive polypeptide library (protein, listed as Gadus morhua) MGTRLHQTNTMKFAALALALLLAVGSHAAAMQSDAPSQLAHIRSAVGMYLDQVKDSAARSLDHLDGTEYESYKAQLATSLDSLQASIKTAQAGAEPYTDAAVAQVMEATTEVRASIMADIETLRTGPGPKREALKKVVDGHI ) is 0%

% Intact Protein at 10 min measured on SEQID-00623: protein of the 168 nutritive polypeptide library (protein, listed as Solanum lycopersicum) MKPAEKKPAEKTPVAEKAPAEKKPKAGKKLPKDAAAGDKKKKRSKKAVETYKIYIFKVLKQVHPDIGISSKAMGIMNSFINDIFEKLAQEASRLARYNKKPTITSREIQTAVRLVLPGELAKHAVSEGTKAVTKFTSS = 63.6%
